Below are IC50 values recorded for ALK tyrosine kinase receptor (Homo sapiens).
PROPERTY: IC50 (nM)

> print(dat)
                            smiles.notation                             target.entity  units.of.measure  numeric.result
1  COc1cc(N2CCC(N3CCN(C)CC3)CC2)ccc1Nc1ncc(Cl)c(Nc2ccccc2S(C)(=O)=O)n1  ALK tyrosine kinase receptor (Homo sapiens)                nM            0.59
2  COc1cc(N2CC[C@@H](N(C)C)C2)ccc1Nc1ncc(Cl)c(Nc2ccccc2P(C)(C)=O)n1  ALK tyrosine kinase receptor (Homo sapiens)                nM            0.33
3  COc1cc(N2CCC(N3CCN(C)CC3)CC2)ccc1Nc1ncc(Cl)c(Nc2ccccc2C(N)=O)n1  ALK tyrosine kinase receptor (Homo sapiens)                nM             0.8
4  COc1cc(P(C)(C)=O)ccc1Nc1ncc(Cl)c(Nc2ccccc2P(C)(C)=O)n1  ALK tyrosine kinase receptor (Homo sapiens)                nM            1.06

P: COc1cc(N2CCC(O)CC2)ccc1Nc1ncc(Cl)c(Nc2ccccc2P(C)(C)=O)n1
Q: COc1cc(N2CCC(N3CCN(C)CC3)CC2)c(F)cc1Nc1ncc(Cl)c(Nc2ccccc2P(C)(C)=O)n1
R: COc1cc(N2CCC(N3CCCC3)CC2)ccc1Nc1ncc(Cl)c(Nc2ccccc2P(C)(C)=O)n1
Request: Order the items by recorded IC50; the first position goes to the largest value. Please write the labels in the order that was asked for.
Result: Q, R, P
